Data origin: patent US9394284B2

# study target: human prostanoid FP receptor (Homo sapiens)
# Construct: expressed in transfected cells
# Sequence (P43088 whole entry): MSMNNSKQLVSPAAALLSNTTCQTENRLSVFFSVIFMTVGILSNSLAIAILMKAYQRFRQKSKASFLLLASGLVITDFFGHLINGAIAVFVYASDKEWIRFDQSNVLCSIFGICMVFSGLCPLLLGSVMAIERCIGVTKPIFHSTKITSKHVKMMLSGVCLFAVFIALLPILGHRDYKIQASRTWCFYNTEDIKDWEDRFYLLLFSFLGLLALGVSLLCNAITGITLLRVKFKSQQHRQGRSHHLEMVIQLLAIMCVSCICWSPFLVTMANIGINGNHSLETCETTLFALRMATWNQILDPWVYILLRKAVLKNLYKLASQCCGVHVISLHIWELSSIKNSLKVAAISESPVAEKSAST
# assay explanation: FLIPR Ca2+ signaling antagonist assay, FP receptor stable cell line
# Format: cell-based
# assay setup: HEK-293 EBNA stable cell line; standard agonist 17-phenyl-PGF2α; NA = inactive (no antagonism or Kb 10,000 nM); PAg, Ag not defined
Some molecules, each annotated with its measured Kb.

{"molecule": "CCC(CC)COc1ccc(Br)cc1Cn1nc(CCC(=O)NS(=O)(=O)C(F)(F)F)cc1C", "Kb (µM)": 0.4}
{"molecule": "Cc1cc(CCC(=O)O)nn1Cc1cc(Cl)ccc1OCC1(C(F)(F)F)CCC1", "Kb (µM)": 0.6}
{"molecule": "Cc1cc(CCC(=O)NS(=O)(=O)C(F)(F)F)nn1Cc1cc(Br)ccc1OCC1CCCC1", "Kb (µM)": 0.25}
{"molecule": "Cc1cc(CCC(=O)NS(=O)(=O)c2ccccc2)nn1Cc1cc(Cl)ccc1OCc1ccc(Cl)cc1", "Kb (µM)": 0.8}
{"molecule": "CCCc1cc(CCC(=O)O)nn1Cc1cc(Br)ccc1OCC(CC)CC", "Kb (µM)": 0.9}
{"molecule": "Cc1cc(CCC(=O)O)nn1Cc1cc(Cl)ccc1OCC1CCCO1 (centres unmarked)", "Kb (µM)": 4}
{"molecule": "Cc1cc(CCC(=O)O)nn1Cc1cc(Br)ccc1OCC1(C(F)(F)F)CCC1", "Kb (µM)": 0.1}
{"molecule": "CCC(CC)COc1ccc(Br)cc1Cn1nc(CC(C)C(=O)O)cc1C (centres unmarked)", "Kb (µM)": 0.14}

* * *

# study target: human prostanoid TP receptor (Homo sapiens)
# Construct: expressed in transfected cells
# Sequence (P21731 whole entry): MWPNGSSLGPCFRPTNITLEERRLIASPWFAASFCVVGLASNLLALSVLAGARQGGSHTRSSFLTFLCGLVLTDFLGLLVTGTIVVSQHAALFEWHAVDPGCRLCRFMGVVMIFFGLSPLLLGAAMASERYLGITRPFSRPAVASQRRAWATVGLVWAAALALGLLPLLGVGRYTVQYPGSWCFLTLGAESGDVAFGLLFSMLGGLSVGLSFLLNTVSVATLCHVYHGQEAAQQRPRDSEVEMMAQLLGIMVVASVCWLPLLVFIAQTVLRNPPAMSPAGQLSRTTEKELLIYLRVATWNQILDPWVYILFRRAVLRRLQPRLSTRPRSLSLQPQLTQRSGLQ
# assay explanation: FLIPR Ca2+ signaling antagonist assay, TP receptor stable cell line
# Format: cell-based
# assay setup: HEK-293 EBNA stable cell line; standard agonist U-46619; NA = inactive (no antagonism or Kb 10,000 nM); PAg, Ag not defined
Some compounds, each annotated with its measured Kb.
endpoint name: Kb (nM)

{"compound": "CCC(CC)COc1ccc(Br)cc1Cn1nc(CCC(=O)O)cc1C(C)(C)C [Example 57]", "endpoint name": "Kb", "unit symbol": "nM", "result value": 500}
{"compound": "CCC(C)CCOc1ccc(Br)cc1Cn1nc(CCC(=O)O)cc1C (centres unmarked) [Example 7]", "endpoint name": "Kb", "unit symbol": "nM", "result value": 2}
{"compound": "Cc1cc(CC(C)(C)C(=O)O)nn1Cc1cc(Br)ccc1OCC1CCCC1 [Example 71]", "endpoint name": "Kb", "unit symbol": "nM", "result value": 8}
{"compound": "Cc1cc(CCC(=O)O)nn1Cc1cc(Cl)ccc1C#CC1CCCC1 [Example 73]", "endpoint name": "Kb", "unit symbol": "nM", "result value": 2}
{"compound": "CCC(CC)COc1ccc(OC(F)(F)F)cc1Cn1nc(CCC(=O)O)cc1C [Example 48]", "endpoint name": "Kb", "unit symbol": "nM", "result value": 40}

* * *

# study target: human prostanoid EP3 receptor (Homo sapiens, UniProt P43115)
# Construct: expressed in transfected cells
# Sequence (P43115 whole entry): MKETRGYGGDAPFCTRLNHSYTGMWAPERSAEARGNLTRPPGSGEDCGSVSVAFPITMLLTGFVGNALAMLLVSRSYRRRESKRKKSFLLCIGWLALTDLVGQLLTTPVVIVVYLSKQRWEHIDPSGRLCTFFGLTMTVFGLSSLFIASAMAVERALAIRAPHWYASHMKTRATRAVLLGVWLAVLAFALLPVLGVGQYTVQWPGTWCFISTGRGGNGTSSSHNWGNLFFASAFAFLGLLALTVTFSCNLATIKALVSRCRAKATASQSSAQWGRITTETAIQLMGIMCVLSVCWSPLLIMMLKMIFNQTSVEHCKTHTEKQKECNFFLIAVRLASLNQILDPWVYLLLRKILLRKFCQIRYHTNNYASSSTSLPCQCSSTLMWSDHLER
# assay explanation: FLIPR Ca2+ signaling antagonist assay, EP3 receptor stable cell line
# Assay type: cell-based
# assay setup: HEK-293 EBNA stable cell line; standard agonist PGE2; NA = inactive (no antagonism or Kb 10,000 nM); PAg, Ag not defined
endpoint name: Kb (nM)

{"chemical structure": "Cc1cc(CCC(=O)O)nn1Cc1cc(OC(F)(F)F)ccc1OCC1CCCC1", "endpoint name": "Kb", "result value": 7100}
{"chemical structure": "CCCc1cc(CCC(=O)O)nn1Cc1cc(Br)ccc1OCC(CC)CC", "endpoint name": "Kb", "result value": 2700}
{"chemical structure": "Cc1cc(CCC(=O)O)nn1Cc1cc(Cl)ccc1OCC(C)(C)C", "endpoint name": "Kb", "result value": 5400}
{"chemical structure": "Cc1cc(CCC(=O)NS(=O)(=O)C(F)(F)F)nn1Cc1cc(Cl)ccc1CCC1CCCC1", "endpoint name": "Kb", "result value": 1600}
{"chemical structure": "Cc1cc(CCC(=O)O)nn1Cc1cc(C(F)(F)F)ccc1OCc1ccc(Cl)cc1", "endpoint name": "Kb", "result value": 2800}

* * *

# study target: human prostanoid EP4 receptor (Homo sapiens)
# Construct: expressed in transfected cells
# Sequence (P35408 whole entry): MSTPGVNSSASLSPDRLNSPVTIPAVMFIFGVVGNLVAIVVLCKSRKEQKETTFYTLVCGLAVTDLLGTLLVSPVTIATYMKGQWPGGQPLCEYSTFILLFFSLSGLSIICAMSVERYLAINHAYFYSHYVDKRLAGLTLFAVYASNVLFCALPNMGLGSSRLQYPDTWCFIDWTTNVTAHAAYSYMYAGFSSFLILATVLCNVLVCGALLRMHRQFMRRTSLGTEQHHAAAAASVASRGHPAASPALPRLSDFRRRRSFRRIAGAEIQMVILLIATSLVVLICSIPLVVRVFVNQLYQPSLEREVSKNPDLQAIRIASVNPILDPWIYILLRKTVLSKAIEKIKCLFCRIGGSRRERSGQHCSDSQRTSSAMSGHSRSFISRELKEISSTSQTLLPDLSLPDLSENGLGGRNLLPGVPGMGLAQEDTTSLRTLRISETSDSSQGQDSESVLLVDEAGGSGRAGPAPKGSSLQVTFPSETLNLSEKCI
# assay explanation: FLIPR Ca2+ signaling antagonist assay, EP4 receptor stable cell line
# Assay type: cell-based
# assay setup: HEK-293 EBNA stable cell line; standard agonist PGE2; NA = inactive (no antagonism or Kb 10,000 nM); PAg, Ag not defined
Some compounds, each annotated with its measured log10(Kb).
endpoint name: log10(Kb) (log10 of the value in nM)

{"chemical structure": "Cc1cc(CCC(=O)O)nn1Cc1cc(C(F)(F)F)ccc1OCc1ccc(Cl)cc1", "log10(Kb)": 3.18}
{"chemical structure": "CCC(CC)COc1ccc(Br)cc1Cn1ccc(CCC(=O)O)n1", "log10(Kb)": 2.00}
{"chemical structure": "Cc1cc(CCC(=O)NS(=O)(=O)C(F)(F)F)nn1Cc1cc(Cl)ccc1OCC1CCCC1", "log10(Kb)": 1.90}
{"chemical structure": "C/C=C(\\C)COc1ccc(Br)cc1Cn1nc(CCC(=O)O)cc1C", "log10(Kb)": 2.78}
{"chemical structure": "Cc1cc(CCCCC(=O)O)nn1Cc1cc(Cl)ccc1OCC1CCCC1", "log10(Kb)": 3.00}
{"chemical structure": "CCC(CC)COc1ccc(Br)cc1Cn1nc(CCC(=O)O)cc1C(C)(C)C", "log10(Kb)": 2.85}
{"chemical structure": "CCC(CC)COc1ccc(OC(F)(F)F)cc1Cn1nc(CCC(=O)O)cc1C", "log10(Kb)": 2.60}
{"chemical structure": "Cc1cc(CCC(=O)O)nn1Cc1cc(Cl)ccc1OCCCC(C)C", "log10(Kb)": 3.23}
{"chemical structure": "Cc1cc(CCC(=O)O)nn1Cc1cc(Br)ccc1OCC(C)C", "log10(Kb)": 3.00}
{"chemical structure": "Cc1cc(CCC(=O)O)nn1Cc1cc(Cl)ccc1OCC(C)C", "log10(Kb)": 3.20}
{"chemical structure": "Cc1cc(CCC(=O)O)nn1Cc1cc(Cl)ccc1OCc1ccc(Cl)cc1Cl", "log10(Kb)": 3.92}
{"chemical structure": "Cc1cc(CCC(=O)O)nn1Cc1cc(Cl)ccc1OCC1CCCCC1", "log10(Kb)": 3.40}
{"chemical structure": "Cc1cc(CCC(=O)O)nn1Cc1cc(OC(F)(F)F)ccc1OCC1CCCC1", "log10(Kb)": 2.30}

* * *

# study target: human prostanoid EP1 receptor (Homo sapiens, UniProt P34995)
# Construct: expressed in transfected cells
# Sequence (P34995 1-402): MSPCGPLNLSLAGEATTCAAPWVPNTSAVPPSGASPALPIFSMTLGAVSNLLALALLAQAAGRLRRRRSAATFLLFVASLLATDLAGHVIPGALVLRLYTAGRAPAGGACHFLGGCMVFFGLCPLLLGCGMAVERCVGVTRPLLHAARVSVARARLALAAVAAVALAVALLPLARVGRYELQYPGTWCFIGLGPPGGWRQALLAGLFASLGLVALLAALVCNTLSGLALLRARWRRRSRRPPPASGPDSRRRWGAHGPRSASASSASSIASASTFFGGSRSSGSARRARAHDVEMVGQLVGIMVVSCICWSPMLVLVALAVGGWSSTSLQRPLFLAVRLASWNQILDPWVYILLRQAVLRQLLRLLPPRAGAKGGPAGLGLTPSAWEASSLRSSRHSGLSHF
# assay explanation: FLIPR Ca2+ signaling antagonist assay, EP1 receptor stable cell line
# Assay type: cell-based
# assay setup: HEK-293 EBNA stable cell line; standard agonist PGE2; NA = inactive (no antagonism or Kb 10,000 nM); PAg, Ag not defined
Hi, to clarify the labels: MET covers Kb from 50 nM upward, NOT MET covers anything below 50 nM.

{"molecule": "CCC(CC)COc1ccc(Br)cc1Cn1nc(CCC(=O)O)cc1C(F)(F)F [Example 58]", "label": "MET"}
{"molecule": "CCC(CC)COc1ccc(C#N)cc1Cn1nc(CCC(=O)O)cc1C [Example 60]", "label": "MET"}
{"molecule": "Cc1cc(CCC(=O)O)nn1Cc1cc(OC(F)(F)F)ccc1OCc1ccc(Cl)cc1 [Example 51]", "label": "NOT MET"}
{"molecule": "Cc1cc(CCC(=O)O)nn1Cc1cc(Cl)ccc1OCCCC(C)C [Example 40]", "label": "MET"}
{"molecule": "CCC(CC)COc1ccc(Cl)cc1Cn1nc(CC(C)C(=O)O)cc1C (racemic) [Example 68]", "label": "MET"}
{"molecule": "COc1ccc(OCC2CCCC2)c(Cn2nc(CCC(=O)O)cc2C)c1 [Example 53]", "label": "MET"}
{"molecule": "CCCC(C)COc1ccc(Br)cc1Cn1nc(CCC(=O)O)cc1C (stereo not drawn) [Example 8]", "label": "NOT MET"}
{"molecule": "Cc1cc(CCC(=O)O)nn1Cc1cc(Br)ccc1OCC(C)C [Example 16]", "label": "NOT MET"}
{"molecule": "Cc1cc(CCC(=O)O)nn1Cc1cc(Cl)ccc1OCC1(C(F)(F)F)CCCC1 [Example 37]", "label": "MET"}
{"molecule": "Cc1cc(CCC(=O)NS(=O)(=O)c2ccccc2)nn1Cc1cc(Cl)ccc1OCc1ccc(Cl)cc1Cl [Example 28]", "label": "MET"}
{"molecule": "Cc1cc(CCC(=O)NS(=O)(=O)CC(F)(F)F)nn1Cc1cc(Cl)ccc1OCc1ccc(Cl)cc1 [Example 25]", "label": "NOT MET"}
{"molecule": "Cc1cc(CCC(=O)O)nn1Cc1cc(Cl)ccc1OCc1ccc(Cl)cc1Cl [Example 26]", "label": "NOT MET"}
{"molecule": "CCC(CC)Oc1ccc(Cl)cc1Cn1nc(CCC(=O)O)cc1C [Example 45]", "label": "MET"}
{"molecule": "Cc1cc(CCC(=O)NS(=O)(=O)C(F)(F)F)nn1Cc1cc(Cl)ccc1OCC(C)C [Example 44]", "label": "NOT MET"}
{"molecule": "Cc1cc(CCC(=O)O)nn1Cc1cc(Cl)ccc1OCC(C)C [Example 42]", "label": "NOT MET"}
{"molecule": "CCC(CC)COc1ccc(Br)cc1Cn1ccc(CCC(=O)O)n1 [Example 59]", "label": "MET"}
{"molecule": "CCC(C)COc1ccc(Br)cc1Cn1nc(CCC(=O)O)cc1C (stereo not drawn) [Example 10]", "label": "NOT MET"}
